target: T1, Anti-CD28 scFv (VH-linker 1-VL) (biotinylated (site not stated)); assay: phage binding ELISA on captured biotinylated anti-CD28 scFv;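 also: crude clonal phage supernatants applied to the wells, bound phage read out with an HRP-conjugated anti-M13 antibody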
T1 construct: biotinylated and captured on neutravidin coated plates in the phage ELISA
T1 sequence (scFv, as listed by the source): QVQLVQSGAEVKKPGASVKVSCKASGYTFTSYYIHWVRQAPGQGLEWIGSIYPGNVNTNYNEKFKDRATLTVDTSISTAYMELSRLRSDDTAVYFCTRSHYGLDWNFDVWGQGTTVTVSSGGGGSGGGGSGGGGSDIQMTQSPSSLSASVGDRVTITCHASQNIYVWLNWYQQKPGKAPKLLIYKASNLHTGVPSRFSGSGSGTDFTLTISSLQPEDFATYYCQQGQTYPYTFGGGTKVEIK
Rule: CD28 scFv signal below 2 gives fulfilled, anything at or above gives not fulfilled.

Sample answers from the record:
* MDWCPRYLWDECFS [Phage-334] | not fulfilled
* MDWCPRHLWDECFY [Phage-331] | not fulfilled
* MDWCPRAMWDYCFY [Phage-397] | not fulfilled

Now consider a different binder.
Does this binder meet the criterion CD28 scFv signal < 2? TDWCPRDMWYLCFN [Phage-396]
not fulfilled
